The reported numbers originate from patent US20260200926A1.

# experimental_target: Human TREM2 (Homo sapiens)
# Construct: expressed in transfected cells
# Sequence (Q9NZC2 19-230): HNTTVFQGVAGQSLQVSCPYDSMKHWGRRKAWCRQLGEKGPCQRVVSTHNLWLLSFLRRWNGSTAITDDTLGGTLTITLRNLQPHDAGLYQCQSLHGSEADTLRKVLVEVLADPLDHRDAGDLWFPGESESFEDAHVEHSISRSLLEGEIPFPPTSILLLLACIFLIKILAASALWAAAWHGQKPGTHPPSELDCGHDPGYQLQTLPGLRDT
# Sequence (O43914 22-113 partner): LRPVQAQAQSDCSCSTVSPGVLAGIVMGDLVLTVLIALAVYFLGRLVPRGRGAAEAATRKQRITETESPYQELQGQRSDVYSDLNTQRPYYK
# assay_comment: Human TREM2 activity: cellular phosphorylation of Syk (AlphaLISA SureFire Ultra p-SYK) in HEK293/DAP12+TREM2 stable cell line
# Type: cell-based
# test_conditions: HEK293; maximal response relative to reference agonist example 1B (remaining examples); read-out: Emax
# Text: Human TREM2, in vitro Measurement of Triggering Receptor Expressed on Myeloid Cells 2 activity using cellular phosphorylation of Spleen Tyrosine Kinase (“Syk”) Assay […] TREM2 signaling through DAP12 was monitored in the HEK293/DAP12+TREM2 stable cell line by measuring the phosphorylation levels of the Syk kinase using the commercially available AlphaLISA SureFire Ultra p-SYK (Tyr525/526) Assay Kit (PerkinElmer #ALSU-PSYK), based on the Perkin Elmer AlphaScreen/AlphaLISA technology. […]
The entries below come with measured Emax values attached.
test_readout: Emax

INSERT INTO results (molecule, experimental_target, test_readout, experimental_result) VALUES
  ('Cc1cc([C@@H]2CN(c3cc4c(=O)n(C)c(C)nc4c(-c4ccc(C(F)F)nc4)n3)C[C@H](C)O2)ccn1 (single isomer, unassigned) [Example 192A]', 'Human TREM2 (Homo sapiens)', 'Emax', '< 75%'),
  ('Cc1nc2c(-c3ccc(Cl)cc3F)nc(N3CCO[C@H](c4cnn(C)c4)C3)nc2c(=O)[nH]1 (single isomer, unassigned) [Example 203A]', 'Human TREM2 (Homo sapiens)', 'Emax', '< 75%'),
  ('Cc1nc2c(-c3ccc(Cl)cc3F)nc([C@H]3CCO[C@@H](c4cnn(C)c4)C3)nc2c(=O)n1C (single isomer, unassigned)', 'Human TREM2 (Homo sapiens)', 'Emax', '75 to 110%');
